Tested on: L-363 cells
procedure.text: Biological Assay C: antiproliferative activity on L-363 cells (CellTiter-Glo)
Format: cell-based
test.settings: Homo sapiens, 72 hr treatment
Procedure: Determination of Antiproliferative Activity on LP-1, L-363 and JJN-3 Cells All compounds tested were dissolved in DMSO and further dilutions were made in culture medium. Final DMSO concentration was 0.3% (v/v) in cell proliferation assays. Viability was assessed using CellTiter-Glo cell viability assay kit (Promega). […] Luminescence was measured on a HTS Topcount (Perkin Elmer). […]
pEC50: −log10 of the molar value.
pEC50: recorded values

>  <compound>
COCc1cn(-c2ccnc(N)n2)c2cc(C#CC(C)(C)O)ncc12

>  <pEC50>
6.61

$$$$
>  <compound>
CC(CO)c1cn(-c2ccnc(N)n2)c2cc(C#CC(C)(C)O)ncc12 (centres unmarked)

>  <pEC50>
6.45

$$$$
>  <compound>
CN1CCC(c2cn(-c3ccnc(N)n3)c3cc(C#CC4(O)CCCC4)ncc23)CC1

>  <pEC50>
6.29

$$$$
>  <compound>
CC(O)(C#Cc1cc2c(cn1)c(C1CCN(CCC(F)(F)F)CC1)cn2-c1nc(N)ncc1F)C1CC1 (centres unmarked)

>  <pEC50>
6.33

$$$$
>  <compound>
CC(C)(O)C#Cc1cc2c(cn1)c(CCC#N)cn2-c1ccnc(N)n1

>  <pEC50>
6.44

$$$$
>  <compound>
CN1CCC(c2cn(-c3ccnc(N)n3)c3cc(C#CC(C)(O)C4CC4)ncc23)CC1 (centres unmarked)

>  <pEC50>
6.67

$$$$
>  <compound>
CC(C)(O)C#Cc1cc2c(cn1)c(CCO)cn2-c1ccnc(N)n1

>  <pEC50>
6.08

$$$$
>  <compound>
CC(O)(C#Cc1cc2c(cn1)c(C1(F)CN(C3CC3)C1)cn2-c1ccnc(N)n1)C1CC1 (centres unmarked)

>  <pEC50>
5.81

$$$$

----------
Tested on: L-363 cells
procedure.text: Biological Assay C: antiproliferative activity on L-363 cells (CellTiter-Glo)
Assay type: cell-based
test.settings: Homo sapiens, 72 hr treatment
pEC50: −log10 of the molar value.
pEC50: recorded values

>  <compound>
CC(C)(O)C#Cc1cc2c(cn1)c(C(N)=O)cn2-c1ccnc(N)n1

>  <tested.target>
L-363 cells

>  <pEC50>
4.90

$$$$
>  <compound>
Cc1cc(C(C)(O)C#Cc2cc3c(cn2)c(C2CCN(C)CC2)cn3-c2ccnc(N)n2)no1 (centres unmarked)

>  <tested.target>
L-363 cells

>  <pEC50>
6.67

$$$$
>  <compound>
Nc1ncc(F)c(-n2cc(CCCO)c3cnc(C#CC4(O)CCCC4)cc32)n1

>  <tested.target>
L-363 cells

>  <pEC50>
5.77

$$$$
>  <compound>
[2H]C([2H])([2H])N1CCC(c2cn(-c3ccnc(N)n3)c3cc(C#CC(O)(C([2H])([2H])[2H])C([2H])([2H])[2H])ncc23)CC1

>  <tested.target>
L-363 cells

>  <pEC50>
7.92

$$$$
>  <compound>
CC(C)(O)C#Cc1cc2c(cn1)c(CCC(C)(C)O)cn2-c1ccnc(N)n1

>  <tested.target>
L-363 cells

>  <pEC50>
6.01

$$$$
>  <compound>
N#CCCc1cn(-c2ccnc(N)n2)c2cc(C#CC3(O)CCCC3)ncc12

>  <tested.target>
L-363 cells

>  <pEC50>
5.88

$$$$
>  <compound>
CC(C)(O)C#Cc1cc2c(cn1)c(CCC(C)(C)O)cn2-c1nc(N)ncc1F

>  <tested.target>
L-363 cells

>  <pEC50>
6.04

$$$$
>  <compound>
CNC(=O)c1cn(-c2ccnc(N)n2)c2cc(C#CC(C)(C)O)ncc12

>  <tested.target>
L-363 cells

>  <pEC50>
5.14

$$$$

----------
tested.target: Recombinant Human NF-kappaB-Inducing Kinase (NIK/MAP3K14) (Homo sapiens, UniProt Q99558)
Sequence (Q99558 whole entry): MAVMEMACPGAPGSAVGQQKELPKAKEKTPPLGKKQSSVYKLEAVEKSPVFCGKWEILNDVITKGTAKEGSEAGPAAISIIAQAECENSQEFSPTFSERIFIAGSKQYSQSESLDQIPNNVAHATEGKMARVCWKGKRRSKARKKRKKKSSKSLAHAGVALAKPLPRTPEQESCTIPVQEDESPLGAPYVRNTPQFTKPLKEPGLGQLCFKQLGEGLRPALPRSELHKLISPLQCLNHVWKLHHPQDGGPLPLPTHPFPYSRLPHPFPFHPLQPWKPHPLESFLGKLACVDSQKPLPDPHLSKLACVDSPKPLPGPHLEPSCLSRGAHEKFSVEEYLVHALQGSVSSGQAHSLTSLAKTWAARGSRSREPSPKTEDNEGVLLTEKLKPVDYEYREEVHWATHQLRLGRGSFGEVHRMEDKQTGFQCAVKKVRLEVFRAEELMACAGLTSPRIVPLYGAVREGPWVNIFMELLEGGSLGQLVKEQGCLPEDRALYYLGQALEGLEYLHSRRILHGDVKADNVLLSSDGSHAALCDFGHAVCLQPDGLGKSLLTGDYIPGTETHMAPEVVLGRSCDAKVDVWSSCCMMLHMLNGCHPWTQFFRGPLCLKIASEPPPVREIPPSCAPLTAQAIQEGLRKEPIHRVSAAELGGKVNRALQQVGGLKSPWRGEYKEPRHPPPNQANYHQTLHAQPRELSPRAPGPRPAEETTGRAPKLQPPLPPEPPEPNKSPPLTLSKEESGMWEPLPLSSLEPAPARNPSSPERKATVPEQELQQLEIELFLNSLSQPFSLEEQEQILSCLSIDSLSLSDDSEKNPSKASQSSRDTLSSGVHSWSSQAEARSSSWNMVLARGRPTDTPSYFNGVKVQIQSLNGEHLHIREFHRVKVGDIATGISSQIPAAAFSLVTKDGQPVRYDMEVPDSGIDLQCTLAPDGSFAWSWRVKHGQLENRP
procedure.text: Biological Assay A2: inhibition of auto-phosphorylation of recombinant human NIK/MAP3K14 (AlphaScreen)
Assay type: biochemical
test.settings: 25 microM ATP, 0.2 nM NIK/MAP3K14, 1 h at 25° C., averaged over all batches, read-out: Alpha-Screen IC50
pIC50: −log10 of the molar value.

>  <compound>
CN1CCC(c2cn(-c3ccnc(N)n3)c3cc(C#CC(C)(O)c4nccs4)ncc23)CC1 (centres unmarked)

>  <pIC50>
7.59

$$$$
>  <compound>
CN1CCC(c2cn(-c3ccnc(N)n3)c3cc(C#CC(C)(C)O)ncc23)CC1

>  <pIC50>
7.46

$$$$
>  <compound>
CC(C)(O)C#Cc1cc2c(cn1)c(/C=C/C#N)cn2-c1ccnc(N)n1

>  <pIC50>
7.31

$$$$
>  <compound>
Cc1cc(C(C)(O)C#Cc2cc3c(cn2)c(C2CCN(C)CC2)cn3-c2ccnc(N)n2)no1 (centres unmarked)

>  <pIC50>
7.38

$$$$
>  <compound>
Cc1cnc(N)nc1-n1ccc2cnc(C#CC(C)(C)O)cc21

>  <pIC50>
6.63

$$$$
>  <compound>
CC(C)(O)C#Cc1cc2c(cn1)c(CCC(C)(C)O)cn2-c1ccnc(N)n1

>  <pIC50>
7.85

$$$$
>  <compound>
CC(O)(C#Cc1cc2c(cn1)c(C1CCN(CCC(F)(F)F)CC1)cn2-c1ccnc(N)n1)C1CC1 (centres unmarked) [Compound 43]

>  <pIC50>
7.17

$$$$
>  <compound>
CC(C)(O)C#Cc1cc2c(cn1)c(C1CCN(CCF)CC1)cn2-c1nc(N)ncc1F

>  <pIC50>
7.13

$$$$

----------
Tested on: L-363 cells
procedure.text: Biological Assay C: antiproliferative activity on L-363 cells (CellTiter-Glo)
Assay type: cell-based
test.settings: Homo sapiens, 72 hr treatment
pEC50: −log10 of the molar value.

>  <molecule>
CC(O)(C#Cc1cc2c(ccn2-c2nc(N)ncc2Cl)cn1)c1nccs1 (stereo not shown)

>  <pEC50>
4.89

$$$$
>  <molecule>
CC(C)(O)C#Cc1cc2c(ccn2-c2nc(N)ncc2Cl)cn1

>  <pEC50>
6.01

$$$$
>  <molecule>
CC(O)(C#Cc1cc2c(cn1)c(C1CCN(CCC(F)(F)F)CC1)cn2-c1ccnc(N)n1)C1CC1 (single isomer, unassigned) [Compound 51]

>  <pEC50>
6.97

$$$$
>  <molecule>
CC(C)(O)C#Cc1cc2c(cn1)c(C1CCN(CCF)CC1)cn2-c1nc(N)ncc1F

>  <pEC50>
7.03

$$$$

----------
pIC50: recorded values
tested.target: Recombinant Human NF-kappaB-Inducing Kinase (NIK/MAP3K14) (Homo sapiens)
procedure.text: Biological Assay A: inhibition of recombinant human NIK/MAP3K14 activity (MSD, MBP substrate)
test.settings: 25 μM ATP, 10 nM NIK/MAP3K14, 1 h at 25° C.; averaged over all batches; read-out: Biochemical (MSD MBP) IC50
pIC50: −log10 of the molar value.

>  <smiles.code>
CC(C)(O)C#Cc1cc2c(cn1)c(CCCO)cn2-c1ccnc(N)n1

>  <tested.target>
Recombinant Human NF-kappaB-Inducing Kinase (NIK/MAP3K14) (Homo sapiens)

>  <pIC50>
8.41

$$$$
>  <smiles.code>
CC(C)(O)C#Cc1cc2c(cn1)c(C(N)=O)cn2-c1ccnc(N)n1

>  <tested.target>
Recombinant Human NF-kappaB-Inducing Kinase (NIK/MAP3K14) (Homo sapiens)

>  <pIC50>
7.55

$$$$
>  <smiles.code>
CC(C)(O)CCc1cn(-c2ccnc(N)n2)c2cc(C#CC3(O)CCCC3)ncc12

>  <tested.target>
Recombinant Human NF-kappaB-Inducing Kinase (NIK/MAP3K14) (Homo sapiens)

>  <pIC50>
7.66

$$$$
>  <smiles.code>
COCc1cn(-c2ccnc(N)n2)c2cc(C#CC(C)(C)O)ncc12

>  <tested.target>
Recombinant Human NF-kappaB-Inducing Kinase (NIK/MAP3K14) (Homo sapiens)

>  <pIC50>
7.66

$$$$
>  <smiles.code>
CN1CCC(c2cn(-c3ccnc(N)n3)c3cc(C#CC4(O)CCCC4)ncc23)CC1

>  <tested.target>
Recombinant Human NF-kappaB-Inducing Kinase (NIK/MAP3K14) (Homo sapiens)

>  <pIC50>
7.40

$$$$
>  <smiles.code>
Nc1ncc(Cl)c(-n2ccc3cnc(C#CC4(O)CCCC4)cc32)n1

>  <tested.target>
Recombinant Human NF-kappaB-Inducing Kinase (NIK/MAP3K14) (Homo sapiens)

>  <pIC50>
8.55

$$$$
>  <smiles.code>
COCCc1cn(-c2ccnc(N)n2)c2cc(C#CC(C)(C)O)ncc12

>  <tested.target>
Recombinant Human NF-kappaB-Inducing Kinase (NIK/MAP3K14) (Homo sapiens)

>  <pIC50>
7.51

$$$$
>  <smiles.code>
CC(C)(O)C#Cc1cc2c(ccn2-c2nc(N)ncc2Cl)cn1

>  <tested.target>
Recombinant Human NF-kappaB-Inducing Kinase (NIK/MAP3K14) (Homo sapiens)

>  <pIC50>
8.42

$$$$
>  <smiles.code>
Nc1ncc(Cl)c(-n2ccc3cnc(C#CC4(O)CC4)cc32)n1

>  <tested.target>
Recombinant Human NF-kappaB-Inducing Kinase (NIK/MAP3K14) (Homo sapiens)

>  <pIC50>
7.92

$$$$
>  <smiles.code>
CC(C)(O)C#Cc1cc2c(cn1)c(CC#N)cn2-c1ccnc(N)n1

>  <tested.target>
Recombinant Human NF-kappaB-Inducing Kinase (NIK/MAP3K14) (Homo sapiens)

>  <pIC50>
7.89

$$$$
>  <smiles.code>
N#CCCc1cn(-c2ccnc(N)n2)c2cc(C#CC3(O)CCCC3)ncc12

>  <tested.target>
Recombinant Human NF-kappaB-Inducing Kinase (NIK/MAP3K14) (Homo sapiens)

>  <pIC50>
8.29

$$$$
>  <smiles.code>
CCc1cn(-c2ccnc(N)n2)c2cc(C#CC(C)(C)O)ncc12

>  <tested.target>
Recombinant Human NF-kappaB-Inducing Kinase (NIK/MAP3K14) (Homo sapiens)

>  <pIC50>
7.96

$$$$

Hello, the source for this data is patent US10005773B2, in case you need it.
